study target: EGFR (Homo sapiens)
Construct: Add 7 ug A431 cell lysate per well (EGFR source); endogenous in cells; host or cells: A431
test method notes: EGFR ELISA assay (in vitro kinase activity, EGFR captured from A431 cell lysate)
Assay type: biochemical
Design: concentration or dose not given beside the values
recorded endpoint: Biochem EGFR %Inhibition (%)
Give the value in % but do not write % after it.

Q: Look up Biochem EGFR %Inhibition: COc1cccc(OC)c1C=C1C(=O)Nc2ccc(Br)c(C)c21
Ans: 9.7

Q: Please look up its Biochem EGFR %Inhibition: O=C1Nc2ccc(S(=O)(=O)N3CCOCC3)cc2C1=Cc1ccco1
Ans: -12.0

Q: Need Biochem EGFR %Inhibition of O=C1Nc2ccc(CCCl)cc2C1=Cc1c[nH]c2ccccc12 , thanks.
Ans: -3.4

Q: Item under review: CC(C)(C)c1cc(C=C2C(=O)Nc3ccc(I)cc32)cc(Cl)c1OCc1ccccc1 . Reported Biochem EGFR %Inhibition?
Ans: 0.6

Q: Please look up its Biochem EGFR %Inhibition: CC(C)(C)c1cc(C=C2C(=O)Nc3ccc(S(=O)(=O)Nc4ccc(C(F)(F)F)cc4)cc32)cc(Cl)c1O
Ans: 10.4

Q: Recorded Biochem EGFR %Inhibition of CN(C)c1ccc(C=C2C(=O)Nc3ccc(CCCl)cc32)c2ccccc12 , please.
Ans: 42.5

Q: Quick one: Biochem EGFR %Inhibition of CCOC(=O)c1cc(C=C2C(=O)Nc3ccc(I)cc32)oc1C ?
Ans: 28.5

Q: Given the compound Cc1c(Br)ccc2c1C(=Cc1coc3ccc(Cl)cc3c1=O)C(=O)N2 , what is its reported Biochem EGFR %Inhibition?
Ans: 8.5

Q: # Biochem EGFR %Inhibition lookup, item COc1ccc(C=C2C(=O)Nc3ccc(I)cc32)c(OC)c1
Ans: 29.9

###

System: MET
test method notes: MET biochemical kinase assay
Parameters: species or system human; concentration or dose not given beside the values
hey, just use y if measured Met Kinase % Inhibition is less than 50%, otherwise n

Q: Record Cc1c(Br)ccc2c1C(=Cc1cc(C(C)(C)C)c(O)c(C(C)(C)C)c1)C(=O)N2 [10721/C11] : is its Met Kinase % Inhibition strictly below 50%?
Ans: y

Q: Below 50% on Met Kinase % Inhibition? Entry O=C1Nc2ccc(I)cc2C1=Cc1ccc(F)cc1 [10717/B05]
Ans: n

Q: is_below(Met Kinase % Inhibition, 50%) for CNS(=O)(=O)c1ccc2c(c1)C(=Cc1cc(OC)c3c(c1)OCO3)C(=O)N2 [10728/D11] ?
Ans: n

Q: Would you kindly verify if Met Kinase % Inhibition of Cc1c(Br)ccc2c1C(=Cc1ccc(N3CCCC3)cc1)C(=O)N2 [10729/C10] is strictly less than 50%?
Ans: y

Q: Hello, is Met Kinase % Inhibition of the following compound strictly smaller than 50%? O=C1Nc2ccc(S(=O)(=O)Nc3ccc(C(F)(F)F)cc3)cc2C1=Cc1cc(C(F)(F)F)ccc1F [10728/E08]
Ans: y

###

study target: EGFR (Homo sapiens, UniProt P00533)
Construct: Add 7 ug A431 cell lysate per well (EGFR source); endogenous in cells; host or cells: A431
Sequence (P00533 25-1210): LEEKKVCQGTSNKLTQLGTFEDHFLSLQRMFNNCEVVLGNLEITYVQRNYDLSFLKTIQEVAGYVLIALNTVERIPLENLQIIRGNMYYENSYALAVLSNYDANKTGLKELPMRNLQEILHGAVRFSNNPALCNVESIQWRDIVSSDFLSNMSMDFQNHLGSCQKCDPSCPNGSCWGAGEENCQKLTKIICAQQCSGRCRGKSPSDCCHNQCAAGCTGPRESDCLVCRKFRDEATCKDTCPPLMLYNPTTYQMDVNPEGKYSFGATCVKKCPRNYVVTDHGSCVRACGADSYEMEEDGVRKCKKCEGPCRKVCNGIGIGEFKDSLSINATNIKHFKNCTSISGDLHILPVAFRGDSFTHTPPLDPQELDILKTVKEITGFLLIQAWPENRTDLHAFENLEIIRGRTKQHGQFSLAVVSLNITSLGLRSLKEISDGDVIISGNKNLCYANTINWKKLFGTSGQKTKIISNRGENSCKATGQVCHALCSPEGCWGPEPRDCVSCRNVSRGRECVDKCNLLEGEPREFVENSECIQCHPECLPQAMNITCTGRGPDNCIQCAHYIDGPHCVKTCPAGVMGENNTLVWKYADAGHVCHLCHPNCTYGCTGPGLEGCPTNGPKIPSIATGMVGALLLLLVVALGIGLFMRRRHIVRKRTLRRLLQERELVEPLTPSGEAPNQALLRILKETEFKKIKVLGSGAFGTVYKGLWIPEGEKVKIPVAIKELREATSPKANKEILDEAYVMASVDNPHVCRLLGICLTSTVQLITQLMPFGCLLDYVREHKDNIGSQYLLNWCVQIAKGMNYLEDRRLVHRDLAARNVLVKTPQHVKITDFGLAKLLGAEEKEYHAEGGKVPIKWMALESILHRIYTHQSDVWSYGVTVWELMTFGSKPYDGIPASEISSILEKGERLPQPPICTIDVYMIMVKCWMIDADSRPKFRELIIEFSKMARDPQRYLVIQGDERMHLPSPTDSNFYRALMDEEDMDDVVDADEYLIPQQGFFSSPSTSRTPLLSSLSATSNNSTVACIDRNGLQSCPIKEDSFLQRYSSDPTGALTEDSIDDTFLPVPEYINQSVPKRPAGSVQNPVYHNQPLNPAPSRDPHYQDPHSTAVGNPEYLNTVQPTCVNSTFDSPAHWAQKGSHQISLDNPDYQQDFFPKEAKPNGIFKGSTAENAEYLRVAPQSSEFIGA
test method notes: EGFR ELISA assay (in vitro kinase activity, EGFR captured from A431 cell lysate)
Assay type: biochemical
Parameters: concentration or dose not given beside the values
recorded endpoint: Biochem EGFR %Inhibition
Quote the value and follow it with the unit of measurement.

Q: Given CCOc1ccccc1C=C1C(=O)Nc2ccc(S(=O)(=O)NC)cc21 , state its recorded Biochem EGFR %Inhibition.
Ans: 10.1%

Q: Sample CCOc1ccccc1C=C1C(=O)Nc2c(Br)cc(Br)cc21 — what was its Biochem EGFR %Inhibition?
Ans: 24.3%

Q: For the compound shown here, CNS(=O)(=O)c1ccc2c(c1)C(=Cc1ccccc1)C(=O)N2 , give the reported Biochem EGFR %Inhibition.
Ans: -35.0%

Q: Value lookup for Biochem EGFR %Inhibition; key = CNS(=O)(=O)c1ccc2c(c1)C(=Cc1cc(Cl)c(OC)c(C(C)(C)C)c1)C(=O)N2
Ans: -9.9%

Q: // lookup Biochem EGFR %Inhibition for Cc1cc(C=C2C(=O)Nc3ccc(S(=O)(=O)Nc4ccc(C(F)(F)F)cc4)cc32)ccc1O
Ans: 11.5%

Q: Biochem EGFR %Inhibition for CNS(=O)(=O)c1ccc2c(c1)C(=Cc1cc(C)c(OC)c(C)c1)C(=O)N2 ?
Ans: 30.8%

Q: Which Biochem EGFR %Inhibition is reported for this compound? O=C1Nc2ccc(S(=O)(=O)Nc3ccc(C(F)(F)F)cc3)cc2C1=Cc1ccc(Br)s1
Ans: -8.0%

Q: Could you share which Biochem EGFR %Inhibition value was measured for CC(C)(C)c1cc(C=C2C(=O)Nc3ccc(I)cc32)c(O)c(C(C)(C)C)c1 ?
Ans: -26.0%

###

study target: FLK-1 receptor (Mus musculus)
Construct: expressed in transfected cells; host or cells: NIH3T3 C7#3
Sequence (P35918 20-1345): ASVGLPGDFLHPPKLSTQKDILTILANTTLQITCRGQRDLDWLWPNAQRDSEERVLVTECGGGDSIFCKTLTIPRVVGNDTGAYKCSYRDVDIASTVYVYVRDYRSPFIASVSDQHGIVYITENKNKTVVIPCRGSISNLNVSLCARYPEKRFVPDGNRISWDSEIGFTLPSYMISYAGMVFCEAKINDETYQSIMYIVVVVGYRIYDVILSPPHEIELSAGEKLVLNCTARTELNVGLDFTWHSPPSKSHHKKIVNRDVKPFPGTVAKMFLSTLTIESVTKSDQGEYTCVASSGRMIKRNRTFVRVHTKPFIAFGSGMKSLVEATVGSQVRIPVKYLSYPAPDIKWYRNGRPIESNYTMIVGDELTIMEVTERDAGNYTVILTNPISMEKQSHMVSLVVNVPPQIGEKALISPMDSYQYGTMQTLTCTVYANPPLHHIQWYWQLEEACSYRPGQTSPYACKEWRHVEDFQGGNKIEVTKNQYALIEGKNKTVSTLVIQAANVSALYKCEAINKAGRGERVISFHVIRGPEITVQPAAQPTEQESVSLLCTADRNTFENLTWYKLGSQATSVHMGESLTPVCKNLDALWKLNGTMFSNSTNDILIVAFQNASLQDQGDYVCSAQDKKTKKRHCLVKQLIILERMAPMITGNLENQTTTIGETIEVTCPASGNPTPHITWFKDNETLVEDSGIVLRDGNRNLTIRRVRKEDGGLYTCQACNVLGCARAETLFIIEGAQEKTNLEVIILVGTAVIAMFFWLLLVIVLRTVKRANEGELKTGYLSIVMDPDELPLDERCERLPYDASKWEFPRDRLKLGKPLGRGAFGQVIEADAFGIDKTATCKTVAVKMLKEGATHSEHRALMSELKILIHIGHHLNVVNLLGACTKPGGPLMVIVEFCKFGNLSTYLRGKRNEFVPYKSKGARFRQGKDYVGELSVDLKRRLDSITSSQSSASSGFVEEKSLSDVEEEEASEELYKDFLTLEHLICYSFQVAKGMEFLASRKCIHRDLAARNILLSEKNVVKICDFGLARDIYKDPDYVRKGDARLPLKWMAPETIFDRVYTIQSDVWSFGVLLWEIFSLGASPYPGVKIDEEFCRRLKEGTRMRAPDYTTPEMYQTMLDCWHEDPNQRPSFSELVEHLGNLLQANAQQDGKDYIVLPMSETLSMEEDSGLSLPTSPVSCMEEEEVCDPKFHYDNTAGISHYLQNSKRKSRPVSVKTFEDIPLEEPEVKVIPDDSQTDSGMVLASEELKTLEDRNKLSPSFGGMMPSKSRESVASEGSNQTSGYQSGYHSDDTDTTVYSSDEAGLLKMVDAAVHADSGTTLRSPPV
test method notes: FLK-1 ELISA (kinase activity of the FLK-1 receptor in FLK-1/NIH3T3 cells, VEGF stimulated)
Type: cell-based
recorded endpoint: Fik Kinase %Inhibition (%)
Kindly provide the numeric value in % only, without the unit symbol.

Q: So what's the measured Fik Kinase %Inhibition for this one? COc1ccc(C=C2C(=O)Nc3ccc(S(=O)(=O)N4CCOCC4)cc32)cc1OC
Ans: 10.6

Q: Given O=C1Nc2ccccc2C1=C1C(=O)Nc2ccc(S(=O)(=O)N3CCOCC3)cc21 , state its recorded Fik Kinase %Inhibition.
Ans: 9.6

Q: Would you mind telling me what Fik Kinase %Inhibition value was observed for O=C1Nc2ccc(S(=O)(=O)Nc3ccc(C(F)(F)F)cc3)cc2C1=Cc1cccc(C(F)(F)F)c1F ?
Ans: 9.6

Q: Looking for the measured Fik Kinase %Inhibition of CCOc1ccccc1C=C1C(=O)Nc2ccc(S(=O)(=O)NC)cc21 , can you help?
Ans: 5.1

###

Kindly state Biochem EGFR %Inhibition for each of the entries shown.
study target: EGFR (Homo sapiens)
Construct: Add 7 ug A431 cell lysate per well (EGFR source); endogenous in cells; host or cells: A431
test method notes: EGFR ELISA assay (in vitro kinase activity, EGFR captured from A431 cell lysate)
Assay type: biochemical
Set-up: concentration or dose not given beside the values
Excerpt: To provide a consistent method for measuring the in vitro kinase activity of the EGFR in an Enzyme-linked immunosorbent assay (Elisa). Scope. The following protocol describes the procedures used to analyze protein tyrosine kinase activity on the EGFR in an Elisa. The procedure also describes the protocol for the initial screening of drugs for inhibition or activation of protein tyrosine kinase activity. Reagents and Supplies. • 1. […]
The reply should be a number in %, with the unit left off.

Q: // lookup Biochem EGFR %Inhibition for CNS(=O)(=O)c1ccc2c(c1)C(=Cc1ccccn1)C(=O)N2
Ans: 21.4

Q: // returns reported Biochem EGFR %Inhibition for input O=CN1CCN(c2ccc(C=C3C(=O)Nc4ccc(CCCl)cc43)cc2)CC1
Ans: -25.8

Q: Using the record for CC(=O)n1cc(C=C2C(=O)Nc3ccc(S(=O)(=O)N4CCOCC4)cc32)c2ccccc21 , report its Biochem EGFR %Inhibition.
Ans: -16.3

Q: Give its Biochem EGFR %Inhibition value. Item: CNS(=O)(=O)c1ccc2c(c1)C(=Cc1cc(C)c(C)s1)C(=O)N2
Ans: 5.0

Q: Fill in: Biochem EGFR %Inhibition of CNS(=O)(=O)c1ccc2c(c1)C(=Cc1ncc[nH]1)C(=O)N2 is ___
Ans: -5.5

Q: I'd like to know its Biochem EGFR %Inhibition. The molecule in question is O=C1Nc2ccc(CCCl)cc2C1=Cc1ccccc1O
Ans: 27.0

Q: What does the data say about its Biochem EGFR %Inhibition? Entry: CNS(=O)(=O)c1ccc2c(c1)C(=Cc1ccccc1Sc1ccc(Cl)cc1)C(=O)N2
Ans: 3.4

Q: Sample CCN(CC)c1ccc(C=C2C(=O)Nc3ccc(S(=O)(=O)N4CCOCC4)cc32)c(O)c1 — what was its Biochem EGFR %Inhibition?
Ans: -15.6

Q: Biochem EGFR %Inhibition for COc1cccc(C=C2C(=O)Nc3ccc(S(=O)(=O)N4CCOCC4)cc32)c1O ?
Ans: 9.3

###

study target: EGFR (Homo sapiens)
Construct: Add 7 ug A431 cell lysate per well (EGFR source); endogenous in cells; host or cells: A431
test method notes: EGFR ELISA assay (in vitro kinase activity, EGFR captured from A431 cell lysate)
Type: biochemical
Design: concentration or dose not given beside the values
recorded endpoint: Biochem EGFR %Inhibition (%)
The reply should be a number in %, with the unit left off.

Q: Using the record for COc1cccc(C=C2C(=O)Nc3c(Br)cc(Br)cc32)c1OC , report its Biochem EGFR %Inhibition.
Ans: 6.2

Q: Item under review: Cc1c(Br)ccc2c1C(=Cc1ccc([N+](=O)[O-])cc1)C(=O)N2 . Reported Biochem EGFR %Inhibition?
Ans: 18.4

Q: Field request: Biochem EGFR %Inhibition | item: COc1c([N+](=O)[O-])cc(C=C2C(=O)Nc3ccc(CCCl)cc32)cc1C(C)(C)C
Ans: 0.7

Q: Item under review: O=C1Nc2ccc(S(=O)(=O)Nc3ccc(C(F)(F)F)cc3)cc2C1=Cc1ccc([N+](=O)[O-])c(O)c1 . Reported Biochem EGFR %Inhibition?
Ans: 8.9

Q: Report Biochem EGFR %Inhibition for COc1c(C(C)(C)C)cc(C=C2C(=O)Nc3ccc(Br)c(C)c32)cc1C(C)(C)C please.
Ans: 29.0

Q: Recorded Biochem EGFR %Inhibition of Cc1cc(C)c(C=C2C(=O)Nc3c(Br)cc(Br)cc32)[nH]1 , please.
Ans: 24.0

Q: Sample CNS(=O)(=O)c1ccc2c(c1)C(=Cc1ccc(O)cc1OC)C(=O)N2 — what was its Biochem EGFR %Inhibition?
Ans: 0.9

Q: Which Biochem EGFR %Inhibition is reported for this compound? COc1cc(N(C)C)ccc1C=C1C(=O)Nc2c(Br)cc(Br)cc21
Ans: 17.7

Q: Report Biochem EGFR %Inhibition for CNS(=O)(=O)c1ccc2c(c1)C(=Cc1coc3ccccc3c1=O)C(=O)N2 please.
Ans: 10.5

Q: Tell me the measured Biochem EGFR %Inhibition of Cc1c(Br)ccc2c1C(=Cc1cc([N+](=O)[O-])ccc1O)C(=O)N2 , please.
Ans: 36.0

Q: Any idea what its Biochem EGFR %Inhibition is? The compound is O=C1Nc2c(Br)cc(Br)cc2C1=Cc1cccnc1
Ans: 37.8

Q: Give the measured Biochem EGFR %Inhibition of COc1ccc(C=C2C(=O)Nc3ccc(S(=O)(=O)N4CCOCC4)cc32)c(OC)c1OC .
Ans: 2.9

Q: Consider the compound Cc1cc(C=C2C(=O)Nc3ccc(Br)c(C)c32)sc1C and give its measured Biochem EGFR %Inhibition.
Ans: 77.7

Q: Looking for the measured Biochem EGFR %Inhibition of COc1c(Br)cc(C=C2C(=O)Nc3ccc(S(=O)(=O)N4CCOCC4)cc32)cc1C(C)(C)C , can you help?
Ans: -12.5

Q: I am curious: what Biochem EGFR %Inhibition value has been reported for O=C1Nc2ccc(S(=O)(=O)Nc3ccc(C(F)(F)F)cc3)cc2C1=Cc1ncc[nH]1 ?
Ans: -65.5

Q: Which Biochem EGFR %Inhibition reading was recorded for the compound CNS(=O)(=O)c1ccc2c(c1)C(=Cc1sc3scc(C)c3c1C)C(=O)N2 ?
Ans: 12.9

Q: // lookup Biochem EGFR %Inhibition for O=C1Nc2c(Br)cc(Br)cc2C1=Cc1coc2ccc(Cl)cc2c1=O
Ans: 6.7

Q: Which Biochem EGFR %Inhibition is reported for this compound? CSc1ccc(C=C2C(=O)Nc3ccc(CCCl)cc32)s1
Ans: -8.0
